- TEST DETAILS: qHTS screen for small molecules that induce genotoxicity in human embryonic kidney (HEK293T) cells expressing luciferase-tagged ELG1; also: nearly all actives have a fitted effect of over 60% in size
- CONDITION INFO: HEK293T ELG1-luciferase reporter, luminescence, 16 h; series mostly up to 46 µM
Screen size: about 330,000 compounds; about 4,200 (1.3%) were called active. Inconclusive results (about 6%) are left out. Calls follow the shape of the dose curve; as a rule, active = well fitted activation curve with a large enough effect; inconclusive = small, poorly fitted or top-dose-only effect; inactive = no such curve, though single readings can be large or run the other way. Only a selection was taken, and actives are over-represented in it overall.
Tick one outcome: T = active, F = inactive

Task item: Could you kindly confirm the outcome this assay logged for CN(C)C(=O)CCc1ccc2c3c([nH]c2c1)[C@]1(C)[C@@H](C(=O)N2CCCCC2)C[C@H](CC(=O)NCCC2=CCCCC2)C(=O)N1CC3 ?
Reply: F

Task item: Could you kindly confirm the outcome this assay logged for CC1CCN(c2oc(-c3ccccc3F)nc2C#N)CC1 ?
Reply: T

Task item: Could you kindly confirm the outcome this assay logged for CC(C)/C=N/NC(=O)c1cc(Br)ccc1O ?
Reply: F

Task item: Could you kindly confirm the outcome this assay logged for N#Cc1nc(-c2cccc3ccccc23)oc1N ?
Reply: F

Task item: Could you kindly confirm the outcome this assay logged for O=S(=O)(NCC1CN(S(=O)(=O)c2ccc3c(c2)OCCO3)C1)c1c(F)cccc1F ?
Reply: F
